meta.source: ChEMBL document CHEMBL1133080

Biological target: Tyrosine-protein kinase CSK (Homo sapiens)
Sequence (P41240 whole entry): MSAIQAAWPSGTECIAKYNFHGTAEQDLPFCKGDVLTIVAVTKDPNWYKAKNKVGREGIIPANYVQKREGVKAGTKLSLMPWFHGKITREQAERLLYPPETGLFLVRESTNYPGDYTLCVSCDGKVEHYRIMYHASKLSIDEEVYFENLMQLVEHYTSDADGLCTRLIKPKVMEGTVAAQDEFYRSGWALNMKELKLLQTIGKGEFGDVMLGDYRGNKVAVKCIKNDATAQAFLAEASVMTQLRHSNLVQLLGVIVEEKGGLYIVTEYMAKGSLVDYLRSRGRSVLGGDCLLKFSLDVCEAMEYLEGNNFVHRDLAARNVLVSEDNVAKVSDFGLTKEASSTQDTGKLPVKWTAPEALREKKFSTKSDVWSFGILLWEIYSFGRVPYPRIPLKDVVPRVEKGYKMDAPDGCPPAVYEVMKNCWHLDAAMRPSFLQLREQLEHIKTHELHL
Assay: Tested for inhibition of protein tyrosine kinase Csk phosphorylation in intact cells
This listing pairs compounds with measured IC50.

- smilesStr: "COc1cccc(-c2cn(-c3ccc(CCN(C)CCO)cc3)c3ncnc(N)c23)c1"
  IC50: "> 5 µM"
- smilesStr: "COc1cccc(-c2cn(-c3ccc(CC(=O)NCCO)cc3)c3ncnc(N)c23)c1"
  IC50: "> 5 µM"
- smilesStr: "COc1cccc(-c2cn(-c3ccc(CNCCO)cc3)c3ncnc(N)c23)c1"
  IC50: "> 5 µM"
- smilesStr: "COc1cccc(-c2cn(-c3ccccc3)c3ncnc(N)c23)c1"
  IC50: "> 5 µM"
- smilesStr: "Nc1ncnc2c1c(-c1ccccc1)cn2-c1cccc(CO)c1"
  IC50: "> 5 µM"
- smilesStr: "Nc1ncnc2c1c(-c1ccccc1)cn2-c1cccc(CNCCO)c1"
  IC50: "5 µM"
- smilesStr: "Nc1ncnc2c1c(-c1ccccc1)cn2-c1ccc(CNCCO)cc1"
  IC50: "4.3 µM"
- smilesStr: "Nc1ncnc2c1c(-c1ccccc1)cn2-c1ccccc1"
  IC50: "> 5 µM"
